// reported inhibition at 0.1 µM for each item listed
# test.system: human recombinant serotonin (5-Hydroxytryptamine) 5-HT6 receptor (Homo sapiens, UniProt P50406)
# Construct: expressed in transfected cells; host or cells: HeLa
# Sequence (P50406 whole entry): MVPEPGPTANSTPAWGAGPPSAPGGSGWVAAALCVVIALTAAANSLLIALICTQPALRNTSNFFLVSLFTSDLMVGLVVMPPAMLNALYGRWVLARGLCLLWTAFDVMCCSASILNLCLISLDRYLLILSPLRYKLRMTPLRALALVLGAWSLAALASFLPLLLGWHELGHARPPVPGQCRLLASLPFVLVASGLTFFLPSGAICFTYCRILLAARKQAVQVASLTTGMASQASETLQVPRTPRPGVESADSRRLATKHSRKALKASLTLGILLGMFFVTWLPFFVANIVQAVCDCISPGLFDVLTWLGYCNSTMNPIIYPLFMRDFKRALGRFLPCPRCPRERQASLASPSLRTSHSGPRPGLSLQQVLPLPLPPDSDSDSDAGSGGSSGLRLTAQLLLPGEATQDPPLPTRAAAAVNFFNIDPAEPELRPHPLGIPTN
# method.notes: Serotonin 5-HT6 radioligand binding ([3H]LSD)
# condition.info: compound at 0.1 μM; HeLa cells; read-out: Percentage inhibition of ligand binding, Serotonin 5-HT6
reported.endpoint: inhibition at 0.1 µM (%)

{"compound": "Cc1ccc2c(c1)c1c3n2CCC(c2ccc(F)cc2)CC3(C)CN(C)C1 (stereo not shown) [Compound 3]", "reported.endpoint": "inhibition at 0.1 µM", "unit.spec": "%", "value": 10}
{"compound": "Cc1ccc2c(c1)c1c3n2CC(c2ccc(F)cc2)CCC3(C)CN(C)C1 (stereo not shown) [Compound 7]", "reported.endpoint": "inhibition at 0.1 µM", "unit.spec": "%", "value": 6}
{"compound": "Cc1ccc2c(c1)c1c3n2CC(c2ccncc2)=CCC3(C)CN(C)C1 (stereo not shown) [Compound 11]", "reported.endpoint": "inhibition at 0.1 µM", "unit.spec": "%", "value": 5}
{"compound": "Cc1ccc2c(c1)c1c3n2CC(c2ccc(F)cc2)=CCC3(C)CN(C)C1 (stereo not shown) [Compound 1]", "reported.endpoint": "inhibition at 0.1 µM", "unit.spec": "%", "value": 8}
{"compound": "Cc1ccc2c(c1)c1c3n2CC(c2ccncc2)OC(C)CC3(C)CN(C)C1 (stereo not shown) [Compound 8]", "reported.endpoint": "inhibition at 0.1 µM", "unit.spec": "%", "value": 4}
{"compound": "Cc1ccc2c(c1)c1c3n2CC(C)(c2ccncc2)OC(C)CC3(C)CN(C)C1 (stereo not shown) [Compound 9]", "reported.endpoint": "inhibition at 0.1 µM", "unit.spec": "%", "value": 21}
{"compound": "Cc1ccc2c(c1)c1c3n2C(c2ccccc2)CCC3(C)CN(C)C1 (stereo not shown) [Compound 12]", "reported.endpoint": "inhibition at 0.1 µM", "unit.spec": "%", "value": 21}
{"compound": "Cc1ccc2c(c1)c1c3n2C(c2ccccc2)=CCC3(C)CN(C)C1 (stereo not shown) [Compound 10]", "reported.endpoint": "inhibition at 0.1 µM", "unit.spec": "%", "value": 7}
{"compound": "Cc1ccc2c(c1)c1c3n2CC=C(c2ccc(F)cc2)CC3(C)CN(C)C1 (stereo not shown) [Compound 5]", "reported.endpoint": "inhibition at 0.1 µM", "unit.spec": "%", "value": 39}
{"compound": "Cc1ccc2c(c1)c1c3n2CC(c2ccncc2)CC3(C)CN(C)C1 (stereo not shown) [Compound 4]", "reported.endpoint": "inhibition at 0.1 µM", "unit.spec": "%", "value": 6}

====

# test.system: human recombinant serotonin (5-Hydroxytryptamine) 5-HT7 receptor (Homo sapiens)
# Construct: expressed in transfected cells; host or cells: CHO
# Sequence (P34969 whole entry): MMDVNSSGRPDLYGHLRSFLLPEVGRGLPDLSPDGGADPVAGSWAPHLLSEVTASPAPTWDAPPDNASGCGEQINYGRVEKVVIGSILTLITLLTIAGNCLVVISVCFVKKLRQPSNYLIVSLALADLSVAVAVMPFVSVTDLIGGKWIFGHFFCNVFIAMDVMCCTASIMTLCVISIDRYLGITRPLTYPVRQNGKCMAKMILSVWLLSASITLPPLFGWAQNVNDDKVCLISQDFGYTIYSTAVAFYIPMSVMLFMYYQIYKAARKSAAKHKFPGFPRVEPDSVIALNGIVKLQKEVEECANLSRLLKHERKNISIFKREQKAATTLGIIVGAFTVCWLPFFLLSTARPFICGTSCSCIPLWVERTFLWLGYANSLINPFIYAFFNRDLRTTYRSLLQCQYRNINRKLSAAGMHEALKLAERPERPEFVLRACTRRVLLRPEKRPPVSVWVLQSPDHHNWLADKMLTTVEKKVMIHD
# method.notes: Serotonin 5-HT7 radioligand binding ([3H]LSD)
# condition.info: compound at 0.1 μM; CHO cells; read-out: Percentage inhibition of ligand binding, Serotonin 5-HT7
reported.endpoint: inhibition at 0.1 µM (%)

{"molecule": "Cc1ccc2c(c1)c1c3n2CC(c2ccc(F)cc2)=CCC3(C)CN(C)C1 (centres unmarked) [Compound 1]", "test.system": "human recombinant serotonin (5-Hydroxytryptamine) 5-HT7 receptor (Homo sapiens)", "reported.endpoint": "inhibition at 0.1 µM", "value": 26}
{"molecule": "Cc1ccc2c(c1)c1c3n2CC=C(c2ccc(F)cc2)CC3(C)CN(C)C1 (centres unmarked) [Compound 5]", "test.system": "human recombinant serotonin (5-Hydroxytryptamine) 5-HT7 receptor (Homo sapiens)", "reported.endpoint": "inhibition at 0.1 µM", "value": 35}
{"molecule": "Cc1ccc2c(c1)c1c3n2CC(C)(c2ccncc2)OC(C)CC3(C)CN(C)C1 (centres unmarked) [Compound 9]", "test.system": "human recombinant serotonin (5-Hydroxytryptamine) 5-HT7 receptor (Homo sapiens)", "reported.endpoint": "inhibition at 0.1 µM", "value": 57}
{"molecule": "Cc1ccc2c(c1)c1c3n2CC(c2ccncc2)OC(C)CC3(C)CN(C)C1 (centres unmarked) [Compound 8]", "test.system": "human recombinant serotonin (5-Hydroxytryptamine) 5-HT7 receptor (Homo sapiens)", "reported.endpoint": "inhibition at 0.1 µM", "value": 55}
{"molecule": "Cc1ccc2c(c1)c1c3n2C(c2ccccc2)CCC3(C)CN(C)C1 (centres unmarked) [Compound 12]", "test.system": "human recombinant serotonin (5-Hydroxytryptamine) 5-HT7 receptor (Homo sapiens)", "reported.endpoint": "inhibition at 0.1 µM", "value": -17}

The origin of these recorded values is patent US9040519B2.
